- Structure as smiles: "CCCOCCc1ccc(O)c(O)c1"
  logP: 1.64

###

- Structure as smiles: "Nc1c(F)cccc1F"
  logP: 1.61
- Structure as smiles: "OCc1ccccc1Br"
  logP: 2.08
- Structure as smiles: "OCc1ccccc1I"
  logP: 2.43
- Structure as smiles: "Fc1cccc(F)c1"
  logP: 2.33

###

- Structure as smiles: "CCCCOC(=O)COc1cc(Cl)c(Cl)cc1Cl"
  logP: 4.81

###

# Protocol description: method code SF-AS, from DOI: 10.1016/0304-4165(70)90354-5, PMID: 5474547
# Stated conditions: pH 7.4

- Structure as smiles: "Cc1cc2ccccc2[nH]1"
  logD: 2.53
